The origin of these recorded values is patent EP4810483A1.

Method: Pharmacokinetic evaluation in mice (IV and PO)
Assay type: in vivo
Particulars: mouse, plasma; CD-1 mice; dose IV:1, PO:5 mg/kg; read-out: Peak plasma concentration Cmax
Experimental Endpoint: Cmax (µM)
Number in µM, nothing else.

Recorded results for 2 molecules are shown here.
Molecule | Cmax / µM
Cc1c(NC(=O)CC(C)(C)C)n(C)c2cc(Nc3ccc(F)cc3)ccc12 [Compound 1] | 0.596
Cc1nc(Nc2ccc3c(C)c(NC(=O)CC(C)(C)C)n(C)c3c2)ccc1F [Compound 41] | 4.58

Pending molecule:
Item Cc1nc(Nc2ccc3c(C)c(NC(=O)CC4(C)CC4)n(C)c3c2)ccc1F [Compound 36] has what recorded Cmax? 4.75
